- study system: human Fc region manufactured by Jackson ImmunoResearch Laboratories, Inc. (human)
- test protocol: phage ELISA, HRP-labelled Fc
Ends that are not written are not given here.
Listed below: O.D. 415 values for each entry.

binder	O.D. 415
recombinant phage displaying polypeptide SEQ ID NO: 79 (protein, T7 phage, not shown: large carriers, ends and bridges not checked; also: displayed on T7 phage coat protein g10) GSCKFSSSCHYDPETGTWYDAAWHLGELVWATYYDPETGTWEPDWQRMLGQ	0.329
DAAWHLGELVWATYYDPETGTWRPDWAVMATP (peptide, T7 phage, not shown: large carriers, ends and bridges not checked) [recombinant phage displaying polypeptide SEQ ID NO: 35]	0.32
recombinant phage displaying polypeptide SEQ ID NO: 71 (protein, T7 phage, not shown: large carriers, ends and bridges not checked) DGVGPGSRGVYDPETGTWYDAAWHLGELVWATYYDPETGTWEPDWQRMLGQ	0.219
DAAWHLGELVWATYYDPETGTWMPDWDRMLRR (peptide, T7 phage, not shown: large carriers, ends and bridges not checked) [recombinant phage displaying polypeptide SEQ ID NO: 38]	0.29
recombinant phage displaying polypeptide SEQ ID NO: 68 (protein, T7 phage, not shown: large carriers, ends and bridges not checked) FLVGLHAGAVYDPETGTWYDAAWHLGELVWATYYDPETGTWEPDWQRMLGQ	0.186
recombinant phage displaying polypeptide SEQ ID NO: 80 (protein, T7 phage, not shown: large carriers, ends and bridges not checked) LIPPGGISPWYDPETGTWYDAAWHLGELVWATYYDPETGTWEPDWQRMLGQ	0.215
AGSRRAHGYDPRTGTWRSSIAYGGG (peptide, T7 phage, not shown: large carriers, ends and bridges not checked) [recombinant phage displaying polypeptide SEQ ID NO: 12]	0.267
GSVVRWRGYDPRTGTWRSSIAYGGG (peptide, T7 phage, not shown: large carriers, ends and bridges not checked) [recombinant phage displaying polypeptide SEQ ID NO: 18]	0.36
DAAWHLGELVWATYYDPETGTWEPDWKLMQRP (peptide, T7 phage, not shown: large carriers, ends and bridges not checked) [recombinant phage displaying polypeptide SEQ ID NO: 30]	0.287
DAAWHLGELVWATYYDPETGTWTPDWNAMSQR (peptide, T7 phage, not shown: large carriers, ends and bridges not checked) [recombinant phage displaying polypeptide SEQ ID NO: 39]	0.273
recombinant phage displaying polypeptide SEQ ID NO: 69 (protein, T7 phage, not shown: large carriers, ends and bridges not checked) VVRVDHSSAVYDPETGTWYDAAWHLGELVWATYYDPETGTWEPDWQRMLGQ	0.201
YDPRTGTWLLYASRLLG (peptide, T7 phage, not shown: large carriers, ends and bridges not checked) [recombinant phage displaying polypeptide SEQ ID NO: 7]	0.214
SWRRRGSSYDPRTGTWRSSIAYGGG (peptide, T7 phage, not shown: large carriers, ends and bridges not checked) [recombinant phage displaying polypeptide SEQ ID NO: 14]	0.282
recombinant phage displaying polypeptide SEQ ID NO: 63 (protein, T7 phage, not shown: large carriers, not fully specified; ends and bridges not checked) SNFVRSPSAWYDPETGTWYDAAWHLGELVWATYYDPETGTWEPDWQRMLGQ	0.272
DAAWHLGELVWATYYDPETGTWQPDWDIMAGH (peptide, T7 phage, not shown: large carriers, ends and bridges not checked) [recombinant phage displaying polypeptide SEQ ID NO: 31]	0.295
DAAWHLGELVWATYYDPETGTWLPDWDVMVRQ (peptide, T7 phage, not shown: large carriers, ends and bridges not checked) [recombinant phage displaying polypeptide SEQ ID NO: 32]	0.352
recombinant phage displaying polypeptide SEQ ID NO: 70 (protein, T7 phage, not shown: large carriers, ends and bridges not checked) WMEFYPGRGVYDPETGTWYDAAWHLGELVWATYYDPETGTWEPDWQRMLGQ	0.189
YDPRTGTWRRSSLSYSG (peptide, T7 phage, not shown: large carriers, ends and bridges not checked) [recombinant phage displaying polypeptide SEQ ID NO: 9]	0.193
GAVYRRSFYDPRTGTWRSSIAYRGG (peptide, T7 phage, not shown: large carriers, ends and bridges not checked) [recombinant phage displaying polypeptide SEQ ID NO: 19]	0.353
recombinant phage displaying polypeptide SEQ ID NO: 57 (protein, T7 phage, not shown: large carriers, ends and bridges not checked) GPGISAFSPGRGVYDPETGTWYDAAWHLGELVWATYYDPETGTWEPDWQRMLGQ	0.229
